molecular target: HCV NS3 protease type 1b/NS4A cofactor peptide (Hepatitis C virus genotype 1b, UniProt P26663); construct: recombinant HCV NS3 protease (amino acid 1027 to 1206) was cloned; made in house; host or cells: E. coli BL21(DE3)pLysS; assay: biochemical; parameters: species or system hepatitis C virus (HCV) genotype 1b
Sequence (P26663 1027-1206, other chains not shown): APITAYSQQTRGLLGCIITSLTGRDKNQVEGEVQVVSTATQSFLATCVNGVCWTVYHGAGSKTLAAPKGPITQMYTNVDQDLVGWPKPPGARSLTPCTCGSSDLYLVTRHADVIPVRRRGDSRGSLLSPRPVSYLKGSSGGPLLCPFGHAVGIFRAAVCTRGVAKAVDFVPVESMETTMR
pIC50: −log10 of the molar value. Starred links: 1 amine or outer side, 2 acyl side, 3 side chain; linkers in the order of their positions; H or OH if unused. Non-standard residues stand in square brackets, D forms with d. Residues, ends and D or L forms follow the SMILES beside them. ξ: configuration not given here. *: point of attachment. NH(1S-phenylethyl) = C[C@H](N*)c1ccccc1; X11 = CCCN(N*)C(=O)[C@H](O)c1ccccc1; Hyp = O=C(O)[C@@H]1C[C@@H](O)CN1; AzaAla = CN(N[*:1])C(=O)[*:2]; X19 = CCCN(N*)C(C)=O; ξNva = CCCC(N)C(=O)O; Bn = c1ccc(C*)cc1

COMPOUND	pIC50
CCCN(NC(=O)[C@@H]1C[C@@H](OCc2ccccc2)CN1C(=O)[C@@H](NC(=O)[C@@H](NC(=O)[C@@H](CCC(=O)O)NC(=O)[C@H](CC(=O)O)NC(C)=O)[C@@H](C)CC)C(C)C)C(=O)[C@H](O)c1ccccc1 [Compound 216] (Ac-D[dE]IV[Hyp](Bn)-X11)	5.02
CCCC(NC(=O)[C@@H]1C[C@@H](OCc2ccccc2)CN1C(=O)[C@@H](NC(=O)[C@@H](NC(=O)[C@@H](CCC(=O)O)NC(=O)[C@H](CC(=O)O)NC(C)=O)[C@@H](C)CC)C(C)C)C(N)=O (stereo partly shown) [Compound 105] (Ac-D[dE]IV[Hyp](Bn)[ξNva]-NH2)	4.27
CC[C@H](C)[C@H](NC(=O)[C@@H](CCC(=O)O)NC(=O)[C@H](CC(=O)O)NC(C)=O)C(=O)N[C@H](C(=O)N1C[C@H](OCc2ccccc2)C[C@H]1C(=O)NN(C)C(=O)N[C@@H](C)c1ccccc1)C(C)C [Compound 221] (Ac-D[dE]IV[Hyp](Bn)[AzaAla]-{NH(1S-phenylethyl)})	6.28
CCCN(NC(=O)[C@@H]1C[C@@H](OCc2ccccc2)CN1C(=O)[C@@H](NC(=O)[C@@H](NC(=O)[C@@H](CCC(=O)O)NC(=O)[C@H](CC(=O)O)NC(C)=O)[C@@H](C)CC)C(C)C)C(C)=O [Compound 208] (Ac-D[dE]IV[Hyp](Bn)-X19)	4.84

###

The entries below are paired with their reported IC50.
Target: HCV NS3 protease type 1b/NS4A cofactor peptide (Hepatitis C virus genotype 1b, UniProt P26663)
Construct: recombinant HCV NS3 protease (amino acid 1027 to 1206) was cloned; made in house; host or cells: E. coli BL21(DE3)pLysS
Assay: biochemical
Set-up: species or system hepatitis C virus (HCV) genotype 1b
Source text: a) Cloning, expression and purification of the recombinant HCV NS3 protease type lb Serum from an HCV-infected patient was obtained through an external collaboration (Bernard Willems MD, Hopital St-Luc, Montreal, Canada and Dr. Donald Murphy, Laboratoire de Sante Publique du Quebec, Ste-Anne de Bellevue, Canada). […]
Starred links: 1 amine or outer side, 2 acyl side, 3 side chain; linkers in the order of their positions; H or OH if unused. Non-standard residues stand in square brackets, D forms with d. Residues, ends and D or L forms follow the SMILES beside them. ξ: configuration not given here. *: point of attachment. Tetrahydroisoquinolin(2-yl) = c1ccc2c(c1)CCN(*)C2; X21 = CCCN(N*)C(=O)CCc1nc(-c2ccccn2)no1; X1 = CCCC(N*)C(=O)C(F)(F)C(F)(F)F; Hyp = O=C(O)[C@@H]1C[C@@H](O)CN1; azaNva = CCCN(N[*:1])C(=O)[*:2]; X2 = CCCN(N*)C(=O)OCc1ccccc1; Nva = CCC[C@H](N)C(=O)O; X14 = c1ccc2c(c1)CCN2*; NHBn = c1ccc(CN*)cc1; ξNva = CCCC(N)C(=O)O; Bn = c1ccc(C*)cc1

COMPOUND	IC50, µM
CCCN(NC(=O)[C@@H]1C[C@@H](OCc2ccccc2)CN1C(=O)[C@@H](NC(=O)[C@@H](NC(=O)[C@@H](CCC(=O)O)NC(=O)[C@H](CC(=O)O)NC(C)=O)[C@@H](C)CC)C(C)C)C(=O)CCc1nc(-c2ccccn2)no1 [Compound 232] (Ac-D[dE]IV[Hyp](Bn)-X21)	3.2
CCCC(NC(=O)[C@@H]1C[C@@H](OCc2ccccc2)CN1C(=O)[C@@H](NC(=O)[C@@H](NC(C)=O)C1CCCCC1)C(C)C)C(=O)C(=O)NCc1ccccc1 (some centres unmarked)	23
CCCC(NC(=O)[C@@H]1C[C@@H](OCc2ccccc2)CN1C(=O)[C@@H](NC(=O)[C@@H](NC(=O)[C@@H](CCC(=O)O)NC(=O)[C@H](CC(=O)O)NC(C)=O)[C@@H](C)CC)C(C)C)C(=O)N1CCc2ccccc2C1 (some centres unmarked) [Compound 111] (Ac-D[dE]IV[Hyp](Bn)[ξNva]-{Tetrahydroisoquinolin(2-yl)})	20
CCCN(NC(=O)[C@@H]1C[C@@H](OCc2ccccc2)CN1C(=O)[C@@H](NC(=O)[C@@H](NC(=O)[C@@H](CCC(=O)O)NC(=O)[C@H](CC(=O)O)NC(C)=O)[C@@H](C)CC)C(C)C)C(=O)OCc1ccccc1 [Compound 206] (Ac-D[dE]IV[Hyp](Bn)-X2)	0.79
CCCC(NC(=O)[C@@H]1C[C@@H](OCc2ccccc2)CN1C(=O)[C@@H](NC(=O)[C@@H](NC(C)=O)C1CCCCC1)C(C)C)C(=O)C(=O)NCc1ccncc1 (some centres unmarked)	25
CCC[C@H](NC(=O)[C@@H]1C[C@@H](OCc2ccccc2)CN1C(=O)[C@@H](NC(=O)[C@@H](NC(=O)[C@@H](CCC(=O)O)NC(=O)[C@H](CC(=O)O)NC(C)=O)[C@@H](C)CC)C(C)C)C(=O)NCc1ccccc1 [Compound 107] (Ac-D[dE]IV[Hyp](Bn)[Nva]-NHBn)	3
CCCC(NC(=O)[C@@H]1C[C@@H](OCc2ccccc2)CN1C(=O)[C@@H](NC(=O)[C@@H](NC(=O)[C@@H](CCC(=O)O)NC(=O)[C@H](CC(=O)O)NC(C)=O)[C@@H](C)CC)C(C)C)C(=O)C(F)(F)C(F)(F)F (some centres unmarked) [Compound 102] (Ac-D[dE]IV[Hyp](Bn)-X1)	0.21
CCCN(NC(=O)[C@@H]1C[C@@H](OCc2ccccc2)CN1C(=O)[C@@H](NC(=O)[C@@H](NC(=O)[C@@H](CCC(=O)O)NC(=O)[C@H](CC(=O)O)NC(C)=O)[C@@H](C)CC)C(C)C)C(=O)N1CCc2ccccc21 [Compound 226] (Ac-D[dE]IV[Hyp](Bn)[azaNva]-X14)	6.3

Where do the numbers come from? From patent US6143715A.
